# assayExplanation: yeast display, Sf9 membrane polyspecificity reagent, FACS + sequencing; frameworks hold sequencing errors
measuredEndpoint: polyreactivity (PSR sort gate)

[[record]]
constructsequence = "QVQLQECGGGLEQAGGSLRLSCAASGTFSNSVKWLYCQARGKEREFVATIGVGGSTNYADSVKGRFTISRDNAKNTVYLQMNSLKPEDTAVYHCAAYGAASNFHYYRGQGTQVTVSS"
endpointvalue = "low polyreactivity"

[[record]]
constructsequence = "QVQLVESGGGLVQAGGSLRLSCAASGRIFGRYAMGWYRQAPGKERELVASISTGGGGTYYADSVKGRFTISRDNAKNTVYLQMNSLKPEDTAVYYCAKAWRGFWTKYDYWGQGTQVTVSS"
endpointvalue = "low polyreactivity"

[[record]]
constructsequence = "QVQLVESGGGLVQAGGSLRLSCAASGRTFPYNVMGWYRQAPRKERELVARITRGGSTDYADSVKGRFTISRDNAKNTVYLLMNSLKPEDTAVYYCAAAIGHFERFYWGQGTQVTVSS"
endpointvalue = "low polyreactivity"

